test system: PPARg:RXRa 30nM:10nM, anti-RXR (NR concentration 30 nM, RXRa partner concentration 10 nM); assay: PBM binding z-score (relative to random genomic background probes); higher = stronger binding; sequences stand for … in GC…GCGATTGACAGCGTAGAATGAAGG
quantity: PBM binding z-score
One number for each entry.

[[record]]
chain_sequence = "CGAACTAGGTCAAAGGACACTGAAAGGCGACGTA"
quantity = "PBM binding z-score"
experimental_result = 10.1


Please report PBM binding z-score for every entry that follows.
1. CTATGTAGGTTAAAGGGGTCATTCAGTTTGAAAG
2. CGAATTAGGTCAAAGGACAGTGAAAGGCGACGTA
3. AGTCAAAGTTCACTAGGTTACGTAAGATTCAGCT
4. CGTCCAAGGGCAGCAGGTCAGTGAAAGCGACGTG

Output:
7.05
8.66
4.4
-0.617

* * *

test system: PXR:RXRa (NR concentration 270 nM, RXRa partner concentration 90 nM); assay: PBM binding z-score (relative to random genomic background probes); higher = stronger binding; sequences stand for … in GC…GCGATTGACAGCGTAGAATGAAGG
For each entry below, report its PBM binding z-score value.
Give bare numbers.

[[record]]
chain_sequence = "GCTTACGGGTCAAAAGTTATAGCATGAATAGAAT"
experimental_result = 2.94


Please report PBM binding z-score for every entry that follows.
1. GGAACGAGCGCAAAGTTGATAGCATCTGTCGACG
2. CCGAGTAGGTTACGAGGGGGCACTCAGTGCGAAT

Output:
1. -0.773
2. 4.32

* * *

system: RARb homodimer (NR concentration 270 nM); test: PBM binding z-score (relative to random genomic background probes); higher = stronger binding; sequences stand for … in GC…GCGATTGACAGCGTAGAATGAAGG
quantity: PBM binding z-score

Reference set (5 entries):
[[record]]
chain_sequence = "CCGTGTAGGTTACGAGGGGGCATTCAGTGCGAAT"
experimental_result = 2.58

[[record]]
chain_sequence = "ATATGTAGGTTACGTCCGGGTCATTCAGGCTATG"
experimental_result = 3.02

[[record]]
chain_sequence = "ATCGAAAGGGCGTGAGGTGAGTATACAGAAAGGC"
experimental_result = 1.44

[[record]]
chain_sequence = "TAGCATAGGTCATGCGGGCCAGTATAGTGTCGGC"
experimental_result = 3.46

[[record]]
chain_sequence = "TCTTGTAGATCAAAGCTTAAGAAAGCCGAAGCCT"
experimental_result = -0.931


Please report PBM binding z-score for every entry that follows.
1. ACTCGGAGGACAAAGGTCACAGCTACGCCAGTGA
2. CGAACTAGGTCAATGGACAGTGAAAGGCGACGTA
3. CGTCAAAGTTCAAGGTTACGTAACAGAAAGCAGC
4. AACGAAAGGTCGACGAGGTGAGTATACACCGTTT

Output:
1: 5.26; 2: 2.45; 3: 4.45; 4: 3

Please report PBM binding z-score for every entry that follows.
1. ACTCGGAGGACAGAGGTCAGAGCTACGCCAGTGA
2. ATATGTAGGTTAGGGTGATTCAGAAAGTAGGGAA
3. ATATGTAGGTCATCGGGTCATTCAGTTTGCGCAT

Output:
3.82
1.48
4.63

* * *

For each entry below, report its PBM binding z-score value.
tested on: PPARg:RXRa 90nM:30nM, anti-RXR (NR concentration 90 nM, RXRa partner concentration 30 nM); assay: PBM binding z-score (relative to random genomic background probes); higher = stronger binding; sequences stand for … in GC…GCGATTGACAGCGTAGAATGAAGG
Give bare numbers.

Reference set (8 entries):
[[record]]
chain_sequence = "CGAACTAGGGCACCAGGACAGTGAAGAGGTTGGA"
tested_system = "PPARg:RXRa 90nM:30nM, anti-RXR (NR concentration 90 nM, RXRa partner concentration 30 nM)"
quantity = "PBM binding z-score"
experimental_result = 2.7

[[record]]
chain_sequence = "ATCGAAACGTCGACGAGGTGAGTATACACCGTTT"
tested_system = "PPARg:RXRa 90nM:30nM, anti-RXR (NR concentration 90 nM, RXRa partner concentration 30 nM)"
quantity = "PBM binding z-score"
experimental_result = -0.157

[[record]]
chain_sequence = "CTAACTAGGTCACAGAGGTCAAAGTCCGTGCGTA"
tested_system = "PPARg:RXRa 90nM:30nM, anti-RXR (NR concentration 90 nM, RXRa partner concentration 30 nM)"
quantity = "PBM binding z-score"
experimental_result = 9.04

[[record]]
chain_sequence = "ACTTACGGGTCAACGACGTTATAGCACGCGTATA"
tested_system = "PPARg:RXRa 90nM:30nM, anti-RXR (NR concentration 90 nM, RXRa partner concentration 30 nM)"
quantity = "PBM binding z-score"
experimental_result = 3.59

[[record]]
chain_sequence = "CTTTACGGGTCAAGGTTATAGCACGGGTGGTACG"
tested_system = "PPARg:RXRa 90nM:30nM, anti-RXR (NR concentration 90 nM, RXRa partner concentration 30 nM)"
quantity = "PBM binding z-score"
experimental_result = 4.51

[[record]]
chain_sequence = "TTACAAAGGTGAAAGGTCGTTGATGCACGCCTTG"
tested_system = "PPARg:RXRa 90nM:30nM, anti-RXR (NR concentration 90 nM, RXRa partner concentration 30 nM)"
quantity = "PBM binding z-score"
experimental_result = 8.62

[[record]]
chain_sequence = "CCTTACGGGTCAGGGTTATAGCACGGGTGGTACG"
tested_system = "PPARg:RXRa 90nM:30nM, anti-RXR (NR concentration 90 nM, RXRa partner concentration 30 nM)"
quantity = "PBM binding z-score"
experimental_result = 1.96

[[record]]
chain_sequence = "AGATGTAGGTTAGGGTCATTCAGAAAGTAGGGAA"
tested_system = "PPARg:RXRa 90nM:30nM, anti-RXR (NR concentration 90 nM, RXRa partner concentration 30 nM)"
quantity = "PBM binding z-score"
experimental_result = 5.81


Please report PBM binding z-score for every entry that follows.
1. GCTCGGAGGACAAGGTCACAGCTTTGTCCGTAGA
2. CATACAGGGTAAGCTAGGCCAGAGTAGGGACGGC
3. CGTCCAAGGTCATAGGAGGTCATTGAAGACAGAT
4. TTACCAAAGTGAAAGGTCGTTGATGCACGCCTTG
5. TCGAGTAGGTTACGGGGGCATTCGGGGATGAAGA
6. ATCGAATGGTCGTGAGGTGAGTATACAGAAAGGC
7. CTATGTAGGTTGAGGGGGTCATTCAGTTTGAAAG

Output:
[2.98, -0.43, 4.71, 5.02, 4.8, -0.425, 5.21]
